Every entry's value here was drawn from PubChem BioAssay (NCI).

- System: UACC-62 melanoma
- method: NCI tumour cell line growth inhibition, 48 h
endpoint name: GI50

For orientation, consider the following solved cases.
COc1cc(/C=C\[N+](=O)[O-])ccc1O ... 1.78 µM
CCOc1ccc(S(=O)(=O)/N=C2\C=C(SCC(=O)O)C(=O)c3ccccc32)cc1 ... 1.99 µM
C[C@@H]1CC[C@@H]2[C@@H]1[C@H](OC(=O)/C=C/c1ccccc1)[C@]1(c3ccccc3)C[C@@H](OC(=O)CO)[C@@]2(C)O1 ... 14.5 µM

I would be grateful if you could provide GI50 for each of the following entries.
1. CC(=O)c1ccc(Nc2cc(-c3ccccc3)nc3c(O)cccc23)cc1
2. CCCCCCCCCCCCCC(=S)NCCCC[C@H](NC(=O)OCc1ccccc1)C(=O)Nc1ccccc1
3. O=C(NNc1nc2c(F)cccc2n2cccc12)c1cnccn1
4. Cc1nn(-c2ccc(F)cc2)c2ncnc(Nc3ccc(NC(=O)Nc4ccc(Cl)c(C(F)(F)F)c4)cc3)c12
5. CNC(=O)c1ccccc1CC1(O)c2ccccc2Oc2ccccc21
6. Brc1cccc(-c2cc(-c3ccc4c(c3)OCCO4)[nH]n2)c1
7. COc1cc(-n2cc(-c3ccc(Cl)c(Cl)c3)nc2SCc2ccccc2)cc(OC)c1OC
8. COc1cc2c3c(cccc3c1)C(=O)N(CCN1CCCC1)C2=O

1: 12.7 µM; 2: 3.51 µM; 3: 0.477 µM; 4: 2.65 µM; 5: 10.4 µM; 6: 0.871 µM; 7: > 100 µM; 8: 1.79 µM

====

- Test system: OVCAR-5 ovarian
- method: NCI tumour cell line growth inhibition, 48 h
Would you kindly list GI50 for each of these molecules?

Below are worked cases with known answers.
COc1c(C2CC(=O)Nc3c2cnn3Cc2ccco2)cc2c(c1OC)OCO2 (stereo not given) ... 4.7 µM
CCOc1ccc(S(=O)(=O)/N=C2\C=C(SCC(=O)O)C(=O)c3ccccc32)cc1 ... 5.5 µM

Please give GI50 for each item listed below.
1. N#Cc1c(-c2cccs2)c2c(=S)[nH]c(=S)[nH]c2[nH]c1=S
2. Cc1cc([C@@H](C)Nc2ccccc2C(=O)O)c2nc(N3CCOCC3)cc(=O)n2c1
3. CC(C)(C)c1cc(O)c(O)c(C(C)(C)C)c1
4. N#Cc1c(NC(=O)c2cccc(C(F)(F)F)c2)sc2c1CCC(=O)C2
5. CC(C)(C)OC(=O)n1cc(CNC(=S)Nc2ccccc2)c2ccccc21
6. CC(=O)c1ccc(Nc2cc(-c3ccccc3)nc3c(O)cccc23)cc1
7. COc1ccc(C(=S)N2CCN(c3cccc(Cl)c3)CC2)cc1

["> 100 µM", "> 10 µM", "11.1 µM", "1.14 µM", "16.3 µM", "54.5 µM", "> 100 µM"]

So what's the measured GI50 for this one? O=C(c1ccc2ccccc2c1)c1c(C(F)(F)F)n([O-])c2cc(Cl)c(Cl)cc2[n+]1=O
1.65 µM

====

- System: HL-60(TB) leukemia
- method: NCI tumour cell line growth inhibition, 48 h; in the data active = GI50 below about 0.43 µM; inactive = the rest
API: response.call in label 1 for active, label 0 for inactive

See these solved cases before continuing.
COc1cccc(/C=C/C(=O)c2cc3c(N)c(C(=O)Nc4ccccc4C)sc3nc2C)c1 ... label 0
N#Cc1c(NC(=O)c2cccc(C(F)(F)F)c2)sc2c1CCC(=O)C2 ... label 0
CCc1c2c(nc3cc4c(cc13)OCO4)-c1cc3c(c(=O)n1C2)COC(=O)[C@]3(O)CC ... label 1
Brc1cccc(-c2cc(-c3ccc4c(c3)OCCO4)[nH]n2)c1 ... label 0
O=C(CCN1CCN(c2cnc3ccccc3n2)CC1)c1csc2ccccc12 ... label 0
O=C(Nc1cccc(-n2ccc3c(NC(=O)c4ccccc4)nccc32)c1)c1cccc(C(F)(F)F)c1 ... label 1
N#CC(=C1SCS1)[N+](=O)[O-] ... label 0
CC(C)(C)OC(=O)n1cc(CNC(=S)Nc2ccccc2)c2ccccc21 ... label 0

Next, consider the following compound.
Could you please tell me the result logged for CCCCCCCCCC[C@@H](O)[C@H]1CC[C@H]([C@H]2CC[C@H]([C@H](O)CCCCCCCCCC[C@@H]3CC(CC(C)=O)C(=O)O3)O2)O1 (some centres undefined) in this assay?
label 0
